Assay: Quantitative High-Throughput drug screen in 47 multiple myeloma cell lines against the NCATS MIPE library collection: OPM2_DSMZ cell viability assay (AID 1919872); further: nearly all actives have a fitted effect of over 30% in size
Conditions: OPM2 myeloma viability, CellTiter-Glo ATP luminescence, 48 h; series mostly up to 45.8 µM
Results filed as inconclusive are left out. The source made the active and inactive calls. The call rests on the fitted dose curve; in most records, active means well fitted cell-killing curve with a large enough effect; inconclusive means small, poorly fitted or top-dose-only effect, or effect the other way; inactive means no such curve, though single readings can be large or run the other way.
Outcome codes: 1.0 for active, 0.0 for inactive

structure_string=Cc1ccc2nc(NC(=O)CSc3nc4c(c(=O)n3-c3ccccc3)SCC4)sc2c1 class_label=1.0
structure_string=CC(C)CC(=O)Nc1n[nH]c2c1CN(C(=O)C1CCN(C)CC1)C2(C)C class_label=1.0
structure_string=CCCCOc1c(C(=O)c2c(F)cc(C)cc2F)cnc2n[nH]cc12 class_label=1.0
structure_string=N#CCNC(=O)c1ccc(-c2ccnc(Nc3ccc(N4CCOCC4)cc3)n2)cc1 class_label=1.0
structure_string=Clc1cccc(-c2nnnn2Cc2cccnc2)c1Cl class_label=0.0
structure_string=COc1ccc(F)c(F)c1C(=O)c1cnc(NC2CCN(S(C)(=O)=O)CC2)nc1N class_label=1.0
